# Experimental protocol: chemical genetic growth profiling, strain panel (AID 1159580);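 further: tested at 20 µM; growth read once vehicle control cultures reached saturation at 30 °C; 1 = growth at the plate median or of vehicle wells; lower values mean less growth of the strain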
# Condition: S. cerevisiae deletion strains, growth OD, locus YLR262C, strain YPT6, hits give low values
The campaign covered roughly 5,500 compounds. About 2,000 (36%) were called active. Roughly 18% stayed inconclusive and do not appear here. This is one part of the list.
Attribute measured: normalized growth

[[record]]
molecule = "CC(=O)[C@H]1CCC2C3C[C@H](C)C4=CC(=O)CC[C@]4(C)C3[C@@H](O)C[C@@]21C (some centres not stated)"
numeric_readout = 0.901

[[record]]
molecule = "COc1ccccc1CC(=O)NC1CCN(Cc2ccccc2)CC1"
numeric_readout = 0.826

[[record]]
molecule = "COc1cc(OC)c2c(c1)OC(c1ccccc1)CC2=O (configuration not stated)"
numeric_readout = 0.836

[[record]]
molecule = "C=CC1=C(C(=O)O)N2C(=O)[C@@H](NC(=O)/C(=N/O)c3csc(N)n3)[C@H]2SC1"
numeric_readout = 1.02

[[record]]
molecule = "O=C1CC(c2ccccc2)Oc2ccccc21 (configuration not stated)"
numeric_readout = 0.971

[[record]]
molecule = "Nc1nc2[nH]c(=O)c(=O)[nH]c2c(=O)[nH]1"
numeric_readout = 1.08

[[record]]
molecule = "COc1cc2c(cc1OC)C(=O)C(CC1CCN(Cc3ccccc3)CC1)C2 (configuration not stated)"
numeric_readout = 0.807

[[record]]
molecule = "CCCCCC(=O)O[C@]1(C(C)=O)CCC2C3CCC4=CC(=O)CC[C@]4(C)C3CC[C@@]21C (some centres not stated)"
numeric_readout = 1.09

[[record]]
molecule = "CC(=O)O[C@]1(C(C)=O)CCC2C3C[C@H](C)C4=CC(=O)CC[C@]4(C)C3CC[C@@]21C (some centres not stated)"
numeric_readout = 0.957

[[record]]
molecule = "Cc1c(N(C)C)c(=O)n(-c2ccccc2)n1C"
numeric_readout = 0.972

[[record]]
molecule = "CC(=O)O[C@]1(C(C)=O)CCC2C3C=C(C)C4=CC(=O)CCC4(C)C3CCC21C (some centres not stated)"
numeric_readout = 0.859

[[record]]
molecule = "Cc1ccc2cc(C)c(C)cc2c1"
numeric_readout = 0.831

[[record]]
molecule = "CCOC(=O)/C=C(\\C)OP(=O)(OC)OC"
numeric_readout = 0.977

[[record]]
molecule = "CC(=O)OCC(CCn1cnc2cnc(N)nc21)COC(C)=O"
numeric_readout = 0.96

[[record]]
molecule = "Cc1cc(C)c2c(-n3cccc3)c(C(=O)c3ccc(Cl)cc3)sc2n1"
numeric_readout = 0.95

[[record]]
molecule = "CC12CCC(C1)C(C)(C)C2NC(=O)c1cccs1 (configuration not stated)"
numeric_readout = 1.03

[[record]]
molecule = "CO[C@H]1C[C@H](O[C@H]2[C@H](C)[C@@H](OC3O[C@H](C)C[C@H](N(C)C)[C@H]3O)[C@@H](C)C[C@]3(CO3)C(=O)[C@H](C)[C@@H](O)[C@@H](C)[C@@H](C)OC(=O)[C@@H]2C)O[C@@H](C)[C@@H]1O (some centres not stated)"
numeric_readout = 0.956

[[record]]
molecule = "CCc1ccc(CCOc2ccc(CC3SC(=O)NC3=O)cc2)nc1 (configuration not stated)"
numeric_readout = 0.88

[[record]]
molecule = "O=C1CC(c2ccc(O)cc2)Oc2ccccc21 (configuration not stated)"
numeric_readout = 0.498

[[record]]
molecule = "C1CCc2nnnn2CC1"
numeric_readout = 1.04

[[record]]
molecule = "COc1ccc(C2CC(=O)c3ccc(OC)cc3O2)cc1 (configuration not stated)"
numeric_readout = 0.872

[[record]]
molecule = "O=C1C[C@@H](c2ccc(O)cc2)Oc2cc(O)cc(O)c21"
numeric_readout = 0.992

